- system: MAb 400-4
- experiment: MAb inhibition ELISA; free peptide inhibits 400-4 binding to coated hG17(1-9)-“Ala”-BSA
Where no end group is shown, it is not given here. [ ]: non-standard residue; d: D form. pGlu = O=C1CC[C@@H](C(=O)O)N1
recordedEndpoint: IC50 (nM)

binder	reportedValue
[pGlu]GPWLEEEEEAYGWMDFG (ends and bridges not checked) [glycine-extended gastrin-17 (G17-Gly)]	699
EGPWLEEEEEAYGWMDF (N-terminal pyroglutamic acid (pE); C-terminal Phe-NH2 (amide)) [human gastrin-17 (G17)]	620

Data origin: patent US20150166656A1
